Test system: Malassezia furfur
Test: Zone of inhibition, disc diffusion method
Type: cell-based
Conditions: Malassezia furfur; antimicrobial active alone, 2 % w/w; 37° C., 48 hrs
Method: The antimicrobial efficacy was determined by measuring zone of inhibition using disc diffusion method against E. Coli, Malassezia furfur, Pseudomonas, Aspergillus niger, Staphylococcus and Candida. […] The culture plates were incubated at 37° C. for 48 hrs and anti-microbial activity was evaluated by observing an area of no growth around the disc. An area of no growth around the swatch is known as a zone of inhibition.
// reported zone of inhibition at 2 % strength per item
State just the number; it will be interpreted in mm.

CC(C)(C)C(=O)C(Oc1ccc(Cl)cc1)n1ccnc1 (stereo not shown) [Climbazole] :: 42
CC(=O)N1CCN(c2ccc(OCC3COC(Cn4ccnc4)(c4ccc(Cl)cc4Cl)O3)cc2)CC1 (stereo not shown) [Ketoconazole] :: 40
Cc1cc(C2CCCCC2)n(O)c(=O)c1 [Ciclopirox Olamine] :: 22

Memo: O=C(O)c1ccccc1O [Salicylic Acid] , reported zone of inhibition at 2 % strength: 6

Origin of the recorded values: patent US20190350200A1
